Collected inhibition values appear next to each entry.
# target_system: Histone deacetylase 2 (Homo sapiens, UniProt Q92769)
# Sequence (Q92769 whole entry): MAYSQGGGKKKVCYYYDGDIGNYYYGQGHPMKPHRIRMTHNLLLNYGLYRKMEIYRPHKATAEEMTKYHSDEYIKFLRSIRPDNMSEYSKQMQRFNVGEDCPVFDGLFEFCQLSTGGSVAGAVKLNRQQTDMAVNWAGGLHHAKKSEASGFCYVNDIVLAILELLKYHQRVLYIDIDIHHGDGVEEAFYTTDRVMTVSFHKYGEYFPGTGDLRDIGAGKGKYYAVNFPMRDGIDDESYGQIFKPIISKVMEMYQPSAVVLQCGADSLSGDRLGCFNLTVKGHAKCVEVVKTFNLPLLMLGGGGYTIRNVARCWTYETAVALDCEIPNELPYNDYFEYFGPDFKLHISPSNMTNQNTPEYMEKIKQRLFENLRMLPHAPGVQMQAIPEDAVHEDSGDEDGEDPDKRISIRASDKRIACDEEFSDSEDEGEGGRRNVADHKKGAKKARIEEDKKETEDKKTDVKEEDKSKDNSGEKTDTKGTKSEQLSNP
# method_description: Inhibition of full-length recombinant human C-terminal GST tagged HDAC2 expressed in Sf9 insect cells using aminoluciferin peptide substrate at 100 nM preincubated for 3 hrs followed by substrate addition and measured after 30 mins by HDAC-Glo I/II chemiluminescence assay
# condition_summary: time 3.5 hrs
Kindly answer with a numeric value in %, unit omitted.

These recorded examples may help you get a feel for the data.
Nc1ccc(-c2ccc(F)cc2)cc1NC(=O)c1cn(-c2ccc(O)cc2)nn1
15
Nc1ccc(-c2ccsc2)cc1NC(=O)CCc1cn(CCc2ccccn2)nn1
12
Nc1ccc(-c2ccsc2)cc1NC(=O)c1cn(CCCCC(=O)O)nn1
0
Nc1ccc(-c2cccs2)cc1NC(=O)c1cccc(-c2cn(CCCc3ccccc3)nn2)c1
4
Cc1ccc(-n2cc(-c3ccc(C(=O)Nc4cc(-c5cccs5)ccc4N)cc3)nn2)cc1C
0

QUERY: Requested field: inhibition. Item: `Nc1ccc(-c2ccccc2)cc1NC(=O)CCc1cn(CC2CCCCC2)nn1`
RESULT: 0

QUERY: Requested field: inhibition. Item: `Nc1ccc(-c2ccsc2)cc1NC(=O)CCc1cn(Cc2ccc(-c3ccccc3)cc2)nn1`
RESULT: 0

QUERY: Requested field: inhibition. Item: `COc1ccc(CCn2cc(CCC(=O)Nc3cc(-c4cccnc4)ccc3N)nn2)cc1`
RESULT: 21

QUERY: Requested field: inhibition. Item: `Nc1ccc(-c2ccccc2)cc1NC(=O)c1cn(CCc2ccsc2)nn1`
RESULT: 0

QUERY: Requested field: inhibition. Item: `Nc1ccc(-c2ccc(F)cc2)cc1NC(=O)CCc1cn(CCc2cccc(F)c2)nn1`
RESULT: 15

QUERY: Requested field: inhibition. Item: `Nc1ccc(-c2ccccc2)cc1NC(=O)c1cn(CCC2CCCC2)nn1`
RESULT: 0

QUERY: Requested field: inhibition. Item: `Nc1ccc(-c2cccs2)cc1NC(=O)c1ccc(-c2cn(CCCCCc3ccccc3)nn2)s1`
RESULT: 1

QUERY: Requested field: inhibition. Item: `Nc1ccc(-c2cccnc2)cc1NC(=O)CCc1cn(CCCCCC(=O)O)nn1`
RESULT: 0

====

Collected Ki values appear next to each entry.
# target_system: Histone deacetylase 2 (Homo sapiens, UniProt Q92769)
Kindly answer with a numeric value in µM, unit omitted.

Nc1ccc(-c2cccs2)cc1NC(=O)c1ccc(-c2cn(CS(=O)(=O)c3ccccc3)nn2)cc1
0.0062

Please turn your attention to the following entry.
QUERY: Requested field: Ki. Item: Nc1ccc(-c2cccs2)cc1NC(=O)c1ccc(-c2cn(C[S+]([O-])c3ccccc3)nn2)cc1 (configuration not stated)
RESULT: 0.022

====

# target_system: Histone deacetylase 2 (Homo sapiens, UniProt Q92769)
# method_description: Inhibition of full-length recombinant human C-terminal GST tagged HDAC2 expressed in Sf9 insect cells using aminoluciferin peptide substrate at 100 nM preincubated for 3 hrs followed by substrate addition and measured after 30 mins by HDAC-Glo I/II chemiluminescence assay
# condition_summary: time 3.5 hrs
Collected inhibition values appear next to each entry.
Kindly answer with a numeric value in %, unit omitted.

These recorded examples may help you get a feel for the data.
Nc1ccc(-n2cc(CCC(=O)Nc3cc(-c4cccs4)ccc3N)nn2)cc1
25
Nc1ccc(-c2cccs2)cc1NC(=O)c1ccc(-c2cn(CC3CCCCC3)nn2)cc1
0
Nc1ccc(-c2cccs2)cc1NC(=O)c1ccc(-c2cn(CCCCC(=O)O)nn2)s1
51

QUERY: Requested field: inhibition. Item: `Nc1ccc(-c2ccccc2)cc1NC(=O)c1cn(CCc2ccccn2)nn1`
RESULT: 0

QUERY: Requested field: inhibition. Item: `Nc1ccc(-c2cccs2)cc1NC(=O)CCc1cn(CCN2CCOCC2)nn1`
RESULT: 1

QUERY: Requested field: inhibition. Item: `Nc1ccc(-c2cccs2)cc1NC(=O)c1ccc(-c2cn(CCc3ccsc3)nn2)cc1`
RESULT: 26

QUERY: Requested field: inhibition. Item: `Nc1ccc(-c2cccs2)cc1NC(=O)c1cccc(-c2cn(-c3cccc4ccccc34)nn2)c1`
RESULT: 0

QUERY: Requested field: inhibition. Item: `Nc1ccc(-c2cccs2)cc1NC(=O)c1cn(-c2ccc(Br)cc2)nn1`
RESULT: 0

QUERY: Requested field: inhibition. Item: `Nc1ccc(-c2ccc(F)cc2)cc1NC(=O)c1cn(CCc2ccc([N+](=O)[O-])cc2)nn1`
RESULT: 12

QUERY: Requested field: inhibition. Item: `Nc1ccc(-c2ccsc2)cc1NC(=O)CCc1cn(-c2ccc(Br)cc2)nn1`
RESULT: 3
